target: Cytochrome P450 2D6 (Homo sapiens) (UniProt P10635); test: Cytochrome panel assay with activity outcomes; details: recombinant CYP, pro-luciferin dealkylation, luminescence, p450-cyp2d6; series mostly up to 57.1 µM
Sequence (P10635 whole entry, looked up): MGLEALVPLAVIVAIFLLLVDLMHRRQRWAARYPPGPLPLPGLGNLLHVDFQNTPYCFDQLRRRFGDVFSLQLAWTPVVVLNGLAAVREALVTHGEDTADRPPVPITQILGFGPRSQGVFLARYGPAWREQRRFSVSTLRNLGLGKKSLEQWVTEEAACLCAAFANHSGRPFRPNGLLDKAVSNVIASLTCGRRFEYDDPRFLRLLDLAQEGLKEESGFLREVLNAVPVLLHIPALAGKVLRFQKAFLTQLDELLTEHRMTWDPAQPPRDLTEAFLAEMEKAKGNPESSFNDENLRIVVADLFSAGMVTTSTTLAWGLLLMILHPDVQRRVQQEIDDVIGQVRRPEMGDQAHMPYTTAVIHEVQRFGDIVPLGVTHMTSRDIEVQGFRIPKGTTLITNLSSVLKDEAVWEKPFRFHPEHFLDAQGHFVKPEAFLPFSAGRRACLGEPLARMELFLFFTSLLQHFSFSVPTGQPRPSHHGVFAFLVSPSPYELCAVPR
Among all 16,000 compounds or so, about 2,600 (16%) were called active. Not shown: some 20% with an inconclusive outcome. Calls come from the whole dose curve; as a rule, active = well fitted curve in the direction sought with a large enough effect; inconclusive = small, poorly fitted or top-dose-only effect, or effect the other way; inactive = no such curve, though single readings can be large or run the other way. Only a sample is shown.
Outcomes you can answer with include only these: yes = active, no = inactive

Completed entries (count: 4):
| compound | qualitative.label |
| --- | --- |
| COc1ccc(-n2c(=O)c(-c3cccs3)nc3cnc(Nc4cccc(OC)c4)nc32)cc1 | no |
| O=C1CSc2ccc(C(=O)NCCC3=CCCCC3)cc2N1 | no |
| COC(=O)[C@@]1(Cc2ccc(OC)cc2)[C@H]2c3cc(C(=O)N4CCCC4)n(Cc4cc(F)cc5c4OCOC5)c3C[C@H]2CN1C(=O)c1ccccc1 | no |
| Cc1ccc(SCc2ccc(C(=O)NCc3ccncc3)cc2)cc1 | yes |

Now look at this one.
Check the results log: what was the call for CCC(C)NC(=O)C1CCN(C(=O)c2ccccc2)CC1 (stereo not given) ?
no

These entries and their values trace back to PubChem BioAssay AID1851.
